# measured_on: T1, CD74 (MHC class II invariant chain) of DR*1501-Tg mouse splenocytes and monocytes (mouse, UniProt P04441-2 1-215, limits assumed, surface biotinylated in the immunoprecipitation experiments)
# T1 construct: Native protein from mouse cells; also called p31
# T1 sequence (looked up): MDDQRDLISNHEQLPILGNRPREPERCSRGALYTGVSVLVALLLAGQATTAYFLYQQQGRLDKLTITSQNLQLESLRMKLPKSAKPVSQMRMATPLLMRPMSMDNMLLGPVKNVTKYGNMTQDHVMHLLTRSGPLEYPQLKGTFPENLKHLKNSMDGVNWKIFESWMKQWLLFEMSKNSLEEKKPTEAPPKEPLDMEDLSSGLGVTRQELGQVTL
# assay_details: direct saturation binding of FITC-labeled construct to CD74 immuno-adsorbed on Protein L/ln-1 beads; SDS-PAGE densitometry; one-site fit
pKd: −log10 of the molar value.

{"columns": ["binder", "pKd"],
 "data": [
  ["DR-α1 domain alone (no DR2-β1 domain or peptide) (other, UniProt P01903 26-109, looked up, labeled with FITC in the direct binding assays, domain: α1) IKEEHVIIQAEFYLNPDQSGEFMFDFDGDEIFHVDMAKKETVWRLEEFGRFASFEAQGALANIAVDKANLEIMTKRSNYTPITN", 8.53]
]}
